Where these numbers come from: patent US8252833B2

Biological target: recombinant human prostanoid EP4 receptor (Homo sapiens, UniProt P35408)
Sequence (P35408 whole entry): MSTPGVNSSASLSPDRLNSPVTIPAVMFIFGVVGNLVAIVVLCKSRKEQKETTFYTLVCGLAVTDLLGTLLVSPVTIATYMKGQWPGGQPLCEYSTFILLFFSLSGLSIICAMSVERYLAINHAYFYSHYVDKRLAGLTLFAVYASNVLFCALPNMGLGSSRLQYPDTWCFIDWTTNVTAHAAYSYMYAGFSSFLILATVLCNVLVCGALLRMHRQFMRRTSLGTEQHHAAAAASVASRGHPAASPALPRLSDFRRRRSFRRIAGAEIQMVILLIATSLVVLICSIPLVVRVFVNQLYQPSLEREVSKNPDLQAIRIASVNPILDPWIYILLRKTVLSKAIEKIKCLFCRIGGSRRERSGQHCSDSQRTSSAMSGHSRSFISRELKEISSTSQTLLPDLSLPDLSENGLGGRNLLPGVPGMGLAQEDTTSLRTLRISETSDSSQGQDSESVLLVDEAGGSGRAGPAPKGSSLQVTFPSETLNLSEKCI
Experiment: In vitro cAMP assay in HEK-EP4 cells
measure.name: EC50

# line.notation, tested.on, measure.name, experimental.result
records = [
    ("CCOc1c2c(c(OCC)c3ccccc13)C(=O)N(c1ccc(CC(=O)O)c(F)c1)C2", "recombinant human prostanoid EP4 receptor (Homo sapiens, UniProt P35408)", "EC50", "0.0398 µM"),
]

* * *

Assay: Oral pharmacokinetics in the rat
Conditions: in vivo, read-out: oral pharmacokinetic half life (converted)
measure.name: half-life

# molecule, experimental.result
rows = [
    ("CCOc1c2c(c(OCC)c3ccccc13)C(=O)N(c1ccc(CC(=O)O)c(F)c1)C2 [Example 9]", "456 min"),
]
